target: CLK1 (Homo sapiens); construct: GST-fusion or His-tag (not specified per kinase); purchased ProQinase GmbH; host or cells: Sf9 insect cells or E. coli (not specified per kinase); experiment: Radiometric protein kinase assay (33PanQinase Activity Assay), CLK1; type: biochemical; conditions: class by IC50 on CLK1, from dose-response curves; read-out: Potency Class CLK1
Sequence (P49759 whole entry, the tested form may be a part): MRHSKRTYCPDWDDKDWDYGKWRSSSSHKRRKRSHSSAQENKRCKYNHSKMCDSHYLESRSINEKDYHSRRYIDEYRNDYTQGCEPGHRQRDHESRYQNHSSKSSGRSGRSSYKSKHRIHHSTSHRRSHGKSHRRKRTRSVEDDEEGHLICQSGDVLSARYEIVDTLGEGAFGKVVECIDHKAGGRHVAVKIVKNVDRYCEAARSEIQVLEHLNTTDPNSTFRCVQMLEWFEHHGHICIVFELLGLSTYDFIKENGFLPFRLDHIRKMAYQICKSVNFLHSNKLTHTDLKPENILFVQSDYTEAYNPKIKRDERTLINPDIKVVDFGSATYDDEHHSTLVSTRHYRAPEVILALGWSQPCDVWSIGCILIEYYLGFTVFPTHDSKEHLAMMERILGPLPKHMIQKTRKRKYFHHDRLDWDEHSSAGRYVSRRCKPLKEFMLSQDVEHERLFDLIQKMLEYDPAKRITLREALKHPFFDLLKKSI
pIC50: −log10 of the molar value.
quantity.measured: pIC50

Problem: Returns the measured pIC50 for the input compound. Input: "Cn1ccc(NC2=N/C(=C\c3ccc4cnccc4c3)C(=O)N2)n1"
Solution: < 7.30

Problem: Would you mind doing "O=C1NC(NC23CC4CC(CC(F)(C4)C2)C3)=N/C1=C\c1ccc2nccnc2c1" as well?
Solution: 7.60 to 8.00

Problem: Would you mind doing "O=C1NC(NC[C@H](O)c2ccccc2)=N/C1=C\c1ccc2nccnc2c1" as well?
Solution: < 7.30

Problem: Would you mind doing O=C1NC(NC2CCCCOC2)=N/C1=C\c1ccc2nccnc2c1 (racemic) as well?
Solution: < 7.30

Problem: Would you mind doing "COC[C@@H](CC(C)C)NC1=N/C(=C\c2ccc3nccnc3c2)C(=O)N1" as well?
Solution: < 7.30

Problem: Would you mind doing CC1(C)CCC(NC2=N/C(=C\c3ccc4nccnc4c3)C(=O)N2)CO1 (racemic) as well?
Solution: < 7.30

// data source = patent US20250340538A1
